Target entity: HLA-A*02:01 (Homo sapiens, UniProt P04439, D140Y/D185E/D98H/E176V/E277Q/G131W/G231S/I119V/I121R/I166T/I218V/L300P/L318F/N151K/N90K/P208A/P217A/Q86G/Q94H/R138H/R169H/T345S)
Experimental protocol: MHC binding assay (UV-ligand exchange, ELISA of exchange yield)
Details: binding to HLA-A*02:01, UV-ligand exchange
Assay readout: Peptide exchange (MHC class I binding score, peptide exchange yield)

Previously resolved entries follow.
>>> print(df.to_string())
                                  substance              observed
0  231 (FLSPQQPPLLL; listed as Homo sapiens) [compound 231]      “++” (≥20% = ++)
1  564 (TVTNAVVTV; listed as Homo sapiens) [compound 564]     “+++” (≥50 = +++)
2  444 (GLLRDEALAEV; listed as Homo sapiens) [compound 444]     “+++” (≥50 = +++)
3  358 (ALDEYTSEL; listed as Homo sapiens) [compound 358]  “++++” (≥75% = ++++)
4  48 (ALAELYEDEV; listed as Homo sapiens) [compound 48]     “+++” (≥50 = +++)

We now examine a further substance.
Report Peptide exchange (MHC class I binding score, peptide exchange yield) for 499 (KIFDIDEAEEGV; listed as Homo sapiens) [compound 499] please.
“++” (≥20% = ++)

The reported measurements were obtained from patent US10047131B2.
